- assayOverview: Pharmacokinetics in Beagle dogs
- Format: in vivo
- conditionNotes: male, Beagle, dog, plasma, po, 2 mg/kg, 2 mg/kg (in free form), crystalline form
experimentalReadout: AUC(0-inf) (ng·h/mL)
Respond numerically; units are ng·h/mL and should not be typed.

Data point: CS(=O)(=O)c1ccc2c(c1)CN([C@H]1CO[C@H](c3cc(F)ccc3F)[C@@H](N)C1)C2 ; AUC(0-inf) = 15800

----------
- assayOverview: Pharmacokinetics in Beagle dogs
- Format: in vivo
- conditionNotes: male, Beagle, dog, plasma, po, 2 mg/kg, 2 mg/kg (in free form), crystalline form, read-out: Cmax
experimentalReadout: Cmax (ng/mL)
Respond numerically; units are ng/mL and should not be typed.

Data point: CS(=O)(=O)c1ccc2c(c1)CN([C@H]1CO[C@H](c3cc(F)ccc3F)[C@@H](N)C1)C2 [The compound represented by Formula I] ; Cmax = 926

Data provenance is patent US10822319B2.
